Data origin, for the record: PubChem BioAssay (NCI)

Documented TGI across a set of molecules
# Test system: NCI-H460 lung
# METHOD NOTES: NCI tumour cell line growth inhibition, 48 h

These solved cases illustrate the format of a correct answer.
{"MOLECULE": "CC(C)O/N=C/c1cc(NC(=S)OC(C)C)ccc1Cl", "VALUE TYPE": "TGI", "RESULT VALUE": "> 100 µM"}
{"MOLECULE": "CN(C)CCNC(=O)c1cccc(N(C)C(=O)c2ccccc2)c1[N+](=O)[O-]", "VALUE TYPE": "TGI", "RESULT VALUE": "> 100 µM"}
{"MOLECULE": "CC(C)=CC(Cc1ccccc1)S(=O)(=O)c1nc2ccccc2s1 (centres undefined)", "VALUE TYPE": "TGI", "RESULT VALUE": "50.1 µM"}
{"MOLECULE": "CCOC(=O)C1c2[nH]c3ccccc3c2CCN1C(=O)c1ccc(OC)o1 (centres undefined)", "VALUE TYPE": "TGI", "RESULT VALUE": "> 10 µM"}
{"MOLECULE": "CC(=O)OCC1OC(n2c(-c3ccccc3)c(C(C)=O)c(-c3cccc4ccccc34)c(C#N)c2=S)C(OC(C)=O)C(OC(C)=O)C1OC(C)=O (centres undefined)", "VALUE TYPE": "TGI", "RESULT VALUE": "> 100 µM"}

### Prompt TGI of CC(C)([NH-])CO.CC(C)([NH-])CO.[Cl][Cd][Cl] on NCI-H460 lung?
### Response 24.6 µM

### Prompt TGI of COc1ccc2c(=O)cc(C(Cl)(Cl)Cl)oc2c1 on NCI-H460 lung?
### Response 8.63 µM

### Prompt TGI of C[C@@]12CCC[C@@](C)(C(=O)O)C1CC[C@]13C[C@@](O)(CO)[C@](O)(CCC12)C3 (some centres undefined) on NCI-H460 lung?
### Response > 100 µM

### Prompt TGI of O=C1CSC(c2ccccc2[N+](=O)[O-])N1c1ccc(-c2ccc(-n3c(-c4ccccc4)nc4ccccc4c3=O)cc2)cc1 (centres undefined) on NCI-H460 lung?
### Response > 100 µM

====

# Test system: HCC-2998 colon
# METHOD NOTES: NCI tumour cell line growth inhibition, 48 h
Documented TGI across a set of compounds

These solved cases illustrate the format of a correct answer.
{"COMPOUND": "COc1ccccc1C1ON=C(c2ccc([N+](=O)[O-])cc2)N1C12CC3CC(CC(C3)C1)C2 (stereo unspecified)", "RESULT VALUE": "> 100 µM"}
{"COMPOUND": "C=C(CCC/C(C)=C/C=C/[C@@H](C)CCCc1ccoc1)C[C@@H]1OC(=O)[C@H](C)[C@@H]1O", "RESULT VALUE": "24.8 µM"}
{"COMPOUND": "Oc1ccc(-c2nc3ccccc3s2)cc1CN(Cc1ccccn1)Cc1ccccn1", "RESULT VALUE": "17 µM"}
{"COMPOUND": "O=C(O)CCSCc1ccccc1", "RESULT VALUE": "> 100 µM"}
{"COMPOUND": "C[As](C)SCC(COC(=O)C(Cl)c1ccccc1)OC(=O)C(Cl)c1ccccc1 (stereo unspecified)", "RESULT VALUE": "4.75 µM"}

Continue with the compound presented below.
### Prompt State the recorded TGI for this entry: COc1ccc2c(=O)cc(C(Cl)(Cl)Cl)oc2c1
### Response 11.3 µM
